{"compound": "Cc1ccc(Cl)cc1NC(=S)Nc1ccn(C)n1", "melting point": "217 to 218 °C"}
{"compound": "CCN(C(=S)Nc1cc(Cl)ccc1C)c1c(C)nn(C)c1C", "melting point": "144 to 145 °C"}
{"compound": "Cc1ccc(Cl)cc1NC(=S)Nc1nccs1", "melting point": "197 to 198 °C"}
{"compound": "CS/C(=N/c1c(C)nn(C)c1C)Nc1cc(Cl)ccc1C", "melting point": "134 to 135 °C"}

---

- Tested on: serum HDL cholesterol
- protocol.summary: in vivo test procedure measuring elevation of HDL cholesterol levels in cholesterol/cholic acid-fed rats
- Design: species or system Male Sprague-Dawley rats
- setup.conditions: Rattus norvegicus, feed or water, 192 h; rats fed diet with 0.25% cholic acid and 1.0% cholesterol; 100 mg/kg/day in diet for 8 days; serum HDL cholesterol by FPLC; read-out: HDL Cholesterol Level Increase (%)
Doc: threshold 60% (exclusive). Items with change in vivo at 100 mg/kg/day beneath it return true (1); others return false (0).

{"compound": "Cc1ccc(Cl)cc1NC(=S)Nc1nc(C)c(C)s1", "target": "serum HDL cholesterol", "qualitative.label": "true (1)"}
{"compound": "Cc1coc(NC(=S)Nc2ccc(Cl)cc2C)n1", "target": "serum HDL cholesterol", "qualitative.label": "false (0)"}
{"compound": "Cc1nc2cc(NC(=S)Nc3cc(Cl)ccc3C)ccc2s1", "target": "serum HDL cholesterol", "qualitative.label": "true (1)"}
{"compound": "Cc1ccc(Cl)cc1NC(=S)Nc1nc2ccc3ccccc3c2s1", "target": "serum HDL cholesterol", "qualitative.label": "true (1)"}
{"compound": "CCc1nnc(NC(=S)Nc2cc(Cl)ccc2C)s1", "target": "serum HDL cholesterol", "qualitative.label": "false (0)"}
{"compound": "Cc1coc(NC(=S)Nc2c(C)cccc2Cl)n1", "target": "serum HDL cholesterol", "qualitative.label": "false (0)"}
{"compound": "Cc1nnc(NC(=S)Nc2cc(Cl)ccc2C)s1", "target": "serum HDL cholesterol", "qualitative.label": "false (0)"}
{"compound": "Cc1ccc(Cl)cc1NC(=S)Nc1nccs1", "target": "serum HDL cholesterol", "qualitative.label": "false (0)"}
{"compound": "CCOC(=O)Cc1csc(NC(=S)Nc2cc(Cl)ccc2C)n1", "target": "serum HDL cholesterol", "qualitative.label": "true (1)"}

---

readout.label: melting point

{"compound": "Cc1ccc(Cl)cc1NC(=S)Nc1cc[nH]n1", "measured.value": "221 to 222 °C"}
{"compound": "Cc1coc(NC(=S)Nc2ccc(Cl)cc2C)n1", "measured.value": "214 °C (dec.)"}
{"compound": "Cc1coc(NC(=S)Nc2c(C)cccc2Cl)n1", "measured.value": "222 °C (dec.)"}
{"compound": "Cc1cccc(Cl)c1NC(=S)Nc1c(C)nn(C)c1C", "measured.value": "201 to 202 °C"}
{"compound": "Cc1coc(NC(=S)Nc2cc(Cl)ccc2C)n1", "measured.value": "207 to 208 °C"}
{"compound": "Cc1csc(NC(=S)Nc2cc(Cl)ccc2C)n1", "measured.value": "188 °C"}
{"compound": "Cc1nc2cc(NC(=S)Nc3cc(Cl)ccc3C)ccc2s1", "measured.value": "173 to 174 °C"}
{"compound": "CCOC(=O)Cc1csc(NC(=S)Nc2cc(Cl)ccc2C)n1", "measured.value": "177 to 179 °C"}
{"compound": "Cc1ccc(Cl)cc1NC(=S)Nc1nc(C)c(C)s1", "measured.value": "188 to 189 °C"}
{"compound": "Cc1cc(NC(=S)Nc2cc(Cl)ccc2C)sn1", "measured.value": "187 to 188 °C (dec.)"}
{"compound": "Cc1ccc(Cl)cc1NC(=S)Nc1c(C)nn(C)c1C", "measured.value": "176 to 177 °C"}
